- System: MEL-JUSO
- EXPERIMENTAL DETAILS: Cytotoxicity against human MEL-JUSO cells incubated for 2 hrs by cell titre blue viability assay
- Type: functional, cell-based
METRIC: pIC50
Would you please state pIC50, meaning minus log10 of the concentration in mol/L, as a bare number?

SMILES CODE	METRIC	REPORTED
COc1cccc2c1C(=O)c1c(O)c3c(c(O)c1C2=O)C[C@@](O)(C(=O)CO)C[C@@H]3O[C@H]1C[C@H](N2CCOCC2)[C@H](O)[C@H](C)O1	pIC50	7.29
COc1cccc2c1C(=O)c1c(O)c3c(c(O)c1C2=O)C[C@@](O)(C(=O)CO)C[C@@H]3O[C@H]1CC[C@H](O)[C@H](C)O1	pIC50	5.61
COc1cccc2c1C(=O)c1c(O)c3c(c(O)c1C2=O)C[C@@](O)(C(C)=O)C[C@@H]3O[C@H]1C[C@H](N)[C@H](O)[C@H](C)O1	pIC50	6.54

Now for another entry.
Query pIC50 for `CC(=O)[C@]1(O)Cc2c(O)c3c(c(O)c2[C@@H](O[C@H]2C[C@H](N)[C@H](O)[C@H](C)O2)C1)C(=O)c1ccccc1C3=O` 7.05
